Test: Metabolic stability in human liver microsomes assessed as fraction of 0.5 uM parent compound remaining after 10 mins
Type: ADME
Conditions: read-out: Stability
remaining at 10 min, 0.5 µM strictly under 80% means rule met; at 80% or over means rule not met.

Examples with answers:
| line_notation | assigned_class |
| --- | --- |
| COc1ccc([C@H](C(N)=O)[C@@H](CCC(F)(F)F)C(=O)N[C@H]2N=C(c3ccccc3)c3ccccc3N(C)C2=O)cc1 | rule met |
| NC(=O)[C@@H](c1cocn1)[C@@H](CCC(F)(F)F)C(=O)N[C@H]1N=C(c2ccccc2)c2ccccc2NC1=O | rule not met |
| CN1C(=O)[C@@H](NC(=O)[C@H](CCC(F)(F)F)[C@@H](C(N)=O)c2ccc(F)cc2)N=C(c2ccccc2)c2ccccc21 | rule not met |
| NC(=O)[C@@H](c1ncon1)[C@@H](CCC(F)(F)F)C(=O)N[C@H]1N=C(c2ccccc2)c2ccccc2NC1=O | rule not met |
| Cc1cc([C@H](C(N)=O)[C@@H](CCC(F)(F)F)C(=O)N[C@H]2N=C(c3ccccc3)c3ccccc3N(C)C2=O)no1 | rule not met |
| CN1C(=O)[C@@H](NC(=O)[C@H](CCC(F)(F)F)[C@@H](C(N)=O)c2cccc(S(C)(=O)=O)c2)N=C(c2ccccc2)c2ccccc21 | rule not met |

Ask: Lab note: remaining at 10 min, 0.5 µM threshold 80%. Does this compound come in strictly under it? CN1C(=O)[C@@H](NC(=O)[C@H](CCC(F)(F)F)[C@@H](C(N)=O)c2cccc(C(F)(F)F)c2)N=C(c2ccccc2)c2ccccc21
Result: rule not met

Ask: Lab note: remaining at 10 min, 0.5 µM threshold 80%. Does this compound come in strictly under it? Cc1nc([C@H](C(N)=O)[C@@H](CCC(F)(F)F)C(=O)N[C@H]2N=C(c3ccccc3)c3ccccc3N(C)C2=O)no1
Result: rule not met

Ask: Lab note: remaining at 10 min, 0.5 µM threshold 80%. Does this compound come in strictly under it? CN1C(=O)[C@@H](NC(=O)[C@H](CCC(F)(F)F)[C@@H](C(N)=O)c2ccccc2)N=C(c2ccccc2)c2ccccc21
Result: rule not met

Ask: Lab note: remaining at 10 min, 0.5 µM threshold 80%. Does this compound come in strictly under it? CN1C(=O)[C@@H](NC(=O)[C@H](CCC(F)(F)F)[C@@H](C(N)=O)c2ccc(F)cc2F)N=C(c2ccccc2)c2ccccc21
Result: rule not met

Ask: Lab note: remaining at 10 min, 0.5 µM threshold 80%. Does this compound come in strictly under it? CN1C(=O)[C@@H](NC(=O)[C@H](CCC(F)(F)F)[C@@H](C(N)=O)c2ccc(F)c(F)c2)N=C(c2ccccc2)c2ccccc21
Result: rule not met

Ask: Lab note: remaining at 10 min, 0.5 µM threshold 80%. Does this compound come in strictly under it? CCC(CC)[C@H](C(N)=O)[C@@H](CCC(F)(F)F)C(=O)N[C@H]1N=C(c2ccccc2)c2ccccc2N(C)C1=O
Result: rule met
